CONDITION LABEL: in acetone, 318.15 K
ENDPOINT: solubility (mole fraction)

May I ask what solubility (mole fraction) has been recorded for "O=C(O)CCCc1c[nH]c2ccccc12" ? 0.365

* * *

CONDITION LABEL: in isopropanol, 323.15 K
ENDPOINT: solubility (mole fraction)

May I ask what solubility (mole fraction) has been recorded for "O=C(O)CCCc1c[nH]c2ccccc12" ? 0.143

* * *

CONDITION LABEL: in ethyl acetate, 308.15 K
ENDPOINT: solubility (mole fraction)

May I ask what solubility (mole fraction) has been recorded for "O=C(O)CCCc1c[nH]c2ccccc12" ? 0.103

* * *

CONDITION LABEL: in 2-butanone, 283.15 K
ENDPOINT: solubility (mole fraction)
Number, no unit, nothing else.

May I ask what solubility (mole fraction) has been recorded for "O=C(O)CCCc1c[nH]c2ccccc12" ? 0.123

* * *

CONDITION LABEL: in n-propanol, 283.15 K
ENDPOINT: solubility (mole fraction)
Number, no unit, nothing else.

May I ask what solubility (mole fraction) has been recorded for "O=C(O)CCCc1c[nH]c2ccccc12" ? 0.0385

* * *

CONDITION LABEL: in isobutanol, 293.15 K
ENDPOINT: solubility (mole fraction)
Number, no unit, nothing else.

May I ask what solubility (mole fraction) has been recorded for "O=C(O)CCCc1c[nH]c2ccccc12" ? 0.0315

* * *

CONDITION LABEL: in methyl acetate, 303.15 K
ENDPOINT: solubility (mole fraction)
Number, no unit, nothing else.

May I ask what solubility (mole fraction) has been recorded for "O=C(O)CCCc1c[nH]c2ccccc12" ? 0.0909

* * *

CONDITION LABEL: in acetonitrile, 283.15 K
ENDPOINT: solubility (mole fraction)
Number, no unit, nothing else.

May I ask what solubility (mole fraction) has been recorded for "O=C(O)CCCc1c[nH]c2ccccc12" ? 0.0411

* * *

CONDITION LABEL: in isopropyl acetate, 293.15 K
ENDPOINT: solubility (mole fraction)
Number, no unit, nothing else.

May I ask what solubility (mole fraction) has been recorded for "O=C(O)CCCc1c[nH]c2ccccc12" ? 0.0711

* * *

CONDITION LABEL: in isopropyl acetate, 313.15 K
ENDPOINT: solubility (mole fraction)
Number, no unit, nothing else.

May I ask what solubility (mole fraction) has been recorded for "O=C(O)CCCc1c[nH]c2ccccc12" ? 0.11

* * *

CONDITION LABEL: in ethyl acetate, 298.15 K
ENDPOINT: solubility (mole fraction)
Number, no unit, nothing else.

May I ask what solubility (mole fraction) has been recorded for "O=C(O)CCCc1c[nH]c2ccccc12" ? 0.0808

* * *

CONDITION LABEL: in methanol, 318.15 K
ENDPOINT: solubility (mole fraction)
Number, no unit, nothing else.

May I ask what solubility (mole fraction) has been recorded for "O=C(O)CCCc1c[nH]c2ccccc12" ? 0.153

* * *

CONDITION LABEL: in n-pentanol, 283.15 K
ENDPOINT: solubility (mole fraction)
Number, no unit, nothing else.

May I ask what solubility (mole fraction) has been recorded for "O=C(O)CCCc1c[nH]c2ccccc12" ? 0.0362

* * *

CONDITION LABEL: in acetone, 283.15 K
ENDPOINT: solubility (mole fraction)
Number, no unit, nothing else.

May I ask what solubility (mole fraction) has been recorded for "O=C(O)CCCc1c[nH]c2ccccc12" ? 0.22

* * *

CONDITION LABEL: in dimethyl carbonate, 303.15 K
ENDPOINT: solubility (mole fraction)
Number, no unit, nothing else.

May I ask what solubility (mole fraction) has been recorded for "O=C(O)CCCc1c[nH]c2ccccc12" ? 0.0453

* * *

CONDITION LABEL: in n-butyl acetate, 303.15 K
ENDPOINT: solubility (mole fraction)
Number, no unit, nothing else.

May I ask what solubility (mole fraction) has been recorded for "O=C(O)CCCc1c[nH]c2ccccc12" ? 0.0885

* * *

CONDITION LABEL: in ethanol, 323.15 K
ENDPOINT: solubility (mole fraction)
Number, no unit, nothing else.

May I ask what solubility (mole fraction) has been recorded for "O=C(O)CCCc1c[nH]c2ccccc12" ? 0.171

* * *

CONDITION LABEL: in ethanol, 293.15 K
ENDPOINT: solubility (mole fraction)
Number, no unit, nothing else.

May I ask what solubility (mole fraction) has been recorded for "O=C(O)CCCc1c[nH]c2ccccc12" ? 0.0642

* * *

CONDITION LABEL: in dimethyl carbonate, 283.15 K
ENDPOINT: solubility (mole fraction)
Number, no unit, nothing else.

May I ask what solubility (mole fraction) has been recorded for "O=C(O)CCCc1c[nH]c2ccccc12" ? 0.0194

* * *

CONDITION LABEL: in isobutyl acetate, 293.15 K
ENDPOINT: solubility (mole fraction)
Number, no unit, nothing else.

May I ask what solubility (mole fraction) has been recorded for "O=C(O)CCCc1c[nH]c2ccccc12" ? 0.0498

* * *

CONDITION LABEL: in ethanol, 298.15 K
ENDPOINT: solubility (mole fraction)
Number, no unit, nothing else.

May I ask what solubility (mole fraction) has been recorded for "O=C(O)CCCc1c[nH]c2ccccc12" ? 0.0753

* * *

CONDITION LABEL: in isopropyl acetate, 308.15 K
ENDPOINT: solubility (mole fraction)

May I ask what solubility (mole fraction) has been recorded for "O=C(O)CCCc1c[nH]c2ccccc12" ? 0.101

* * *

CONDITION LABEL: in isobutyl acetate, 313.15 K
ENDPOINT: solubility (mole fraction)
Number, no unit, nothing else.

May I ask what solubility (mole fraction) has been recorded for "O=C(O)CCCc1c[nH]c2ccccc12" ? 0.0848

* * *

CONDITION LABEL: in n-pentanol, 288.15 K
ENDPOINT: solubility (mole fraction)
Number, no unit, nothing else.

May I ask what solubility (mole fraction) has been recorded for "O=C(O)CCCc1c[nH]c2ccccc12" ? 0.0408

* * *

CONDITION LABEL: in sec-butanol, 303.15 K
ENDPOINT: solubility (mole fraction)

May I ask what solubility (mole fraction) has been recorded for "O=C(O)CCCc1c[nH]c2ccccc12" ? 0.0829

* * *

CONDITION LABEL: in isopentanol, 313.15 K
ENDPOINT: solubility (mole fraction)

May I ask what solubility (mole fraction) has been recorded for "O=C(O)CCCc1c[nH]c2ccccc12" ? 0.0858

* * *

CONDITION LABEL: in ethyl acetate, 283.15 K
ENDPOINT: solubility (mole fraction)

May I ask what solubility (mole fraction) has been recorded for "O=C(O)CCCc1c[nH]c2ccccc12" ? 0.049

* * *

CONDITION LABEL: in isopentanol, 308.15 K
ENDPOINT: solubility (mole fraction)
Number, no unit, nothing else.

May I ask what solubility (mole fraction) has been recorded for "O=C(O)CCCc1c[nH]c2ccccc12" ? 0.0725

* * *

CONDITION LABEL: in n-pentanol, 298.15 K
ENDPOINT: solubility (mole fraction)
Number, no unit, nothing else.

May I ask what solubility (mole fraction) has been recorded for "O=C(O)CCCc1c[nH]c2ccccc12" ? 0.058

* * *

CONDITION LABEL: in ethanol, 303.15 K
ENDPOINT: solubility (mole fraction)
Number, no unit, nothing else.

May I ask what solubility (mole fraction) has been recorded for "O=C(O)CCCc1c[nH]c2ccccc12" ? 0.0886

* * *

CONDITION LABEL: in isopentanol, 293.15 K
ENDPOINT: solubility (mole fraction)
Number, no unit, nothing else.

May I ask what solubility (mole fraction) has been recorded for "O=C(O)CCCc1c[nH]c2ccccc12" ? 0.0412

* * *

CONDITION LABEL: in methyl acetate, 293.15 K
ENDPOINT: solubility (mole fraction)
Number, no unit, nothing else.

May I ask what solubility (mole fraction) has been recorded for "O=C(O)CCCc1c[nH]c2ccccc12" ? 0.0701

* * *

CONDITION LABEL: in dimethyl carbonate, 323.15 K
ENDPOINT: solubility (mole fraction)
Number, no unit, nothing else.

May I ask what solubility (mole fraction) has been recorded for "O=C(O)CCCc1c[nH]c2ccccc12" ? 0.101

* * *

CONDITION LABEL: in ethyl acetate, 323.15 K
ENDPOINT: solubility (mole fraction)

May I ask what solubility (mole fraction) has been recorded for "O=C(O)CCCc1c[nH]c2ccccc12" ? 0.17

* * *

CONDITION LABEL: in n-butanol, 293.15 K
ENDPOINT: solubility (mole fraction)
Number, no unit, nothing else.

May I ask what solubility (mole fraction) has been recorded for "O=C(O)CCCc1c[nH]c2ccccc12" ? 0.0495

* * *

CONDITION LABEL: in isobutanol, 318.15 K
ENDPOINT: solubility (mole fraction)
Number, no unit, nothing else.

May I ask what solubility (mole fraction) has been recorded for "O=C(O)CCCc1c[nH]c2ccccc12" ? 0.0857

Recorded values, source BigSolDB 2.1.
